MEASURED TARGET: UniProt Q16769
Sequence (Q16769 29-361): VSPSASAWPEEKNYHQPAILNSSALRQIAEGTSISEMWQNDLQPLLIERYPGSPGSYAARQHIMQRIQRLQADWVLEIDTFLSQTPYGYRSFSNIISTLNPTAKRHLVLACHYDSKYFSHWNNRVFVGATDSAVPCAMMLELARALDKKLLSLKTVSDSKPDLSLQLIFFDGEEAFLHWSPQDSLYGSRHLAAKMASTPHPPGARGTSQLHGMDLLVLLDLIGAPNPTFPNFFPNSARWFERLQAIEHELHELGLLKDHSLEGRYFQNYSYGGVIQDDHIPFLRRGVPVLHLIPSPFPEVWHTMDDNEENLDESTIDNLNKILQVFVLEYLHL
TEST DETAILS: Inhibition of human glutaminyl cyclase, fluorogenic substrate H-Gln-AMC
Format: biochemical
MEASURED QUANTITY: pKi
The value called pKi is obtained by taking minus log10 of the concentration in mol/L.

Tell me the measured pKi of c1ccc(Cn2ccnc2)cc1 [compound 3, N-benzylimidazole, reference compound] , please. 4.77

---

MEASURED TARGET: PiQC (Prevotella intermedia)
Sequence (A0A3R7XL21 entry or part of it): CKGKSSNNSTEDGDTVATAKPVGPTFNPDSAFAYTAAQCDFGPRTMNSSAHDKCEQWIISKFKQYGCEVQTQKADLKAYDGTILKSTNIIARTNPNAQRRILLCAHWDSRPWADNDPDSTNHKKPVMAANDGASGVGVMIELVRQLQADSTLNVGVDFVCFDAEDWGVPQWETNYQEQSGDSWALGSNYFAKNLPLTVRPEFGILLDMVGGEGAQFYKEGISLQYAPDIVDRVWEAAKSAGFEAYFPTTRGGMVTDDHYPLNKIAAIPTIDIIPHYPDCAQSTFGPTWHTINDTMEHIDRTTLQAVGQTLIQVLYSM
TEST DETAILS: Inhibition of Prevotella intermedia glutaminyl cyclase, fluorogenic substrate H-Gln-AMC
EXPERIMENTAL PARAMETERS: recombinant QC, competitive inhibition fit
Ki by entry:
Answer with a number only, understood to be in nM.

Recorded results for 2 compounds are shown here.
>>> meas_value("COc1cc(Cl)cc(C(=O)N2CCc3[nH]cnc3C2)c1 [8t]")
96
>>> meas_value("O=C(c1ccc2ccccc2c1)N1CCc2nc[nH]c2C1 [8w]")
117

Tell me the measured Ki of O=C(c1cc(Cl)cc(Cl)c1)N1CCc2nc[nH]c2C1 [8k] , please. 63
